Tested on: H5N1 subtype
Assay: Antiviral activity against H5N1 subtype infected in MDCK cells
Type: functional, organism-based
Conditions: Influenza A virus
reportedEndpoint: IC50 (µM)
One number for each entry, in µM.

>>> print(df.to_string())
                            molecularstring  measurementtarget  datavalue
0  COc1c(OC)c(C(=O)O)c2c(OC)c(-c3c(C)cc4c(C(C)C)c(OC)c(OC)c(C(=O)O)c4c3OC)c(C)cc2c1C(C)C       H5N1 subtype        158
1  CC(=O)Oc1c(OC(C)=O)c(C(=O)O)c2c(OC(C)=O)c(-c3c(C)cc4c(C(C)C)c(OC(C)=O)c(OC(C)=O)c(C(=O)O)c4c3OC(C)=O)c(C)cc2c1C(C)C       H5N1 subtype       2.98
2  Cc1cc2c(C(C)C)c(O)c(O)c(C=O)c2c(O)c1-c1c(C)cc2c(C(C)C)c(O)c(O)c(C=O)c2c1O       H5N1 subtype       2.14
3  COc1c(OC)c(C=O)c2c(OC)c(-c3c(C)cc4c(C(C)C)c(OC)c(OC)c(C=O)c4c3OC)c(C)cc2c1C(C)C       H5N1 subtype        103
4  Cc1cc2c(C(C)C)c(O)c(O)c(C(=O)O)c2c(O)c1-c1c(C)cc2c(C(C)C)c(O)c(O)c(C(=O)O)c2c1O       H5N1 subtype       2.37

Please turn your attention to the following entry.
Request body: readout IC50, system H5N1 subtype, query NC12CC3CC(CC(C3)C1)C2 . Return the value.
3.84
